Recorded values, source patent US20070072177A1.

# measurement_target: purified rabies virus glycoprotein (rabies virus ERA strain) (rabies virus strain ERA, UniProt P03524 20-524)
# procedure_summary: phage ELISA on coated purified G protein (ERA), anti-M13-HRP
endpoint_name: OD 492 nm
Put down the number, then write its unit next to it.

Worked cases, OD 492 nm given:
>>> measured_result("SC04-164 (scFv) scFv: AMAEVQLVESGGGVVQPGRSLRLSCAASGFTFSSYGMHWVRQAPGKGLEWVAVISYDGSSKYYADSVKGRFTISRDNSKNTLYLQMNSLRAEDTAVYYCAKGSVLGDAFDIWGQGTMVTVSSGTGGSGGTGSGTGGSTDIQLTQSPSSVSASVGDRVTITCRASQGISSWLAWYQQKPGKAPKLLIYAASSLQSGVPSRFSGSGSGTDFTLTISSLQPEDFATYYCQQANSFPLTFGGGTKVDIKRAAA")
"0.547 OD 492 nm"
>>> measured_result("SC04-040 (scFv) scFv: AMAQVQLVQSGGGVVQPGRSLRLSCAASGFTFGSYGMHWVRQAPGKGLEWVATIFYDGSYKDYADSVKGRFTISRDNSKNTLYLQMNSLRAEDTAVYYCAKGSKVGDFDYWGQGTLVTVSSGTGGSGGTGSGTGGSTQPVLTQPPSVSVAPGQTARISCGGDNIGTNTVQWYQQKPGQAPVLVVYDDSDRPSGIPERFSGSNSGDTATLTISRVEAGDEADYYCQVWDDSSDLVVFGGGTKVTVLGAAA")
"0.74 OD 492 nm"
>>> measured_result("SC04-103 (scFv) scFv: AMAQVQLQESGGGVVQPGRSLRLSCAASGFTFSSYGMHWVRQAPGKGLEWVAVILYDGSDKYYADSVKGRFTISRDNSKNTLYLQMNSLRAEDTAVYYCAKVAVAGESFDSWGRGTLVTVSSGTGGSGGTGSGTGGSTDIQLTQSPSSVSASVGDRVTITCRASQGISSWLAWYQQKPGKAPRSLIYDASSLQSGVPSRFSGSGSGTDFTLTISSLQPEDFATYYCQQADSFPITFGQGTRLEIKRAAA")
"0.606 OD 492 nm"

# ---- query binder ----
Query: Find the recorded OD 492 nm belonging to SC04-038 (scFv) scFv: AMAQVQLVQSGGGVVQPGRSLRLSCAASGFTFSSYGMHWVRQAPGKGLEWVAVISYDGSSKYYADSVKGRFTISRDNSKNTLYLQMNSLRAEDTAVYYCAKGSVLGDAFDIWGQGTMVTVSSGTGGSGGTGSGTGGSTDIQLTQSPSSVSASVGDRVTITCRASQGISGWLAWYQQKPEKAPKLLIYAASSLQRGVPSRFSGSGSGTDFTLTISSLQPEDFATYYCQQANSFPPTFGQGTRLEIKRAAA and report it.
Response: 0.653 OD 492 nm
